Examples of binders with documented pIC50 follow.
target.or.system: human 4-1BB on CHO-K1 cells (human, UniProt Q07011 24-255)
Sequence (Q07011 24-255): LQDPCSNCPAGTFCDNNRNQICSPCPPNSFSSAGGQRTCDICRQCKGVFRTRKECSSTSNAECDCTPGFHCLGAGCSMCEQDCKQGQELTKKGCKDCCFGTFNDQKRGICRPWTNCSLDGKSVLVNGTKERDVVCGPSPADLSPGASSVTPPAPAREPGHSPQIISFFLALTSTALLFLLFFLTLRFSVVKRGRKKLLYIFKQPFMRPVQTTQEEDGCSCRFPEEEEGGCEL
measurement.notes: FACS blocking of 4-1BBL
Kindly note that pIC50 refers to -log10 of the concentration in mol/L and answer with the value alone.

Some entries whose results are on file:
binder	pIC50
PR007293 (antibody, V domains shown) VH: EVQLVESGGGLVKPGGSLRLSCAASGFTFSDYYMSWFRQAPGKGLEWVSYINSSGSTIYYEYSVKGRFTISRDNAKNSLYLQMNSLRAEDTAVYYCAREREEVAGTLDFDYWGQGTLVTVSS	7.95
PR007296 (antibody, V domains shown) VH: EVQLVESGGGLVKPGGSLRLSCVASGFTFSDYYMSWFRQAPGKGLEWVSYISGSGTTIDYADSVKGRFTISRDNAKNSLYLQMNSLRAEDTAVYYCAREREAVAGTLDFDNWGQGTPVTVSS	8.38
PR007300 (antibody, V domains shown) VH: EVQLVESGGGLVKPGGSLRLSCTTSGFTFSDYYMNWVRQAPGKGLEWVSYISNNGSTIYYADSVKGRFTISRDNAKNSLYLQMNSLRAEDTAVYYCARVRPGGSGNYWDWFDPWGQGTPVTVSS	8.54
PR007297 (antibody, V domains shown) VH: EVQLVESGGGLVKPGGSLRLSCAASGFTFSDYYMSWIRQAPGKGLEWVSYISRSGSTIYYADSVKGRFTISRDNAKNSLYLQMNSLRAEDTAVYYCARVRPGGSGNYWDWFDPWGQGTLVTVSS	7.95
PR007298 (antibody, V domains shown) VH: EVQLVESGGGLVKPGGSLRLSCAASGFTFSDYYMSWVRQAPGKGLEWVSYISSSGSTIDYADSVKGRFTISRDNAKNSLFLEMNSLRAEDTAVYYCAREREEVAGTLDFDNWGQGTLVTVSS	8.17
PR007299 (antibody, V domains shown) VH: EVQLVESGGGLVKPGGSLRLSCAASGFTFSDYQMSWLRQAPGKGLEWVSYISSSGRTIYYADSVKGRFTISRDNAKNSVSLQMNSLRAEDTAVYYCAREGRFFPGQGTPVTVSS	7.64
PR007294 (antibody, V domains shown) VH: EVQLVESGGGLVKPGGSLRLSCVASGFTFSDYYMSWFRQAPGKGLEWVSYISGSGTTIDYADSVKGRFTISRDNAKNSLYLQMNSLRAEDTAVYYCAREREPVAGTLDFDNWGQGTLVTVSS	8.18
PR007292 (antibody, V domains shown) VH: EVQLVESGGGLVKPGGSLRLSCAASGFTFSDYYMSWIRQAPGKGLEWVSYISSSGSTIDYADSVKGRFTISRDNAKNSLYLQMNSLRAEDTAVYYCAREREEVAGTLDYDNWGQGTLVTVSS	8.27

Give the measured pIC50 for PR007295 (antibody, V domains shown) VH: EVQLVESGGGLVKPGGSLRLSCAASGFTFSDYYMSWIRQAPGKGLEWVSYISNNGSTIYYADSVKGRFTISRDNAKNSLYLQMNSLRAEDTAVYYCARVRPGGSGNYWDWFDPWGQGTMVTVSS
7.79
